Kindly state IC50 for each of the entries shown.
# target.or.system: human recombinant HDAC6 (Homo sapiens, UniProt Q9UBN7)
# Construct: purchased Calbiochem Inc. 382180
# Sequence (Q9UBN7 1-1215): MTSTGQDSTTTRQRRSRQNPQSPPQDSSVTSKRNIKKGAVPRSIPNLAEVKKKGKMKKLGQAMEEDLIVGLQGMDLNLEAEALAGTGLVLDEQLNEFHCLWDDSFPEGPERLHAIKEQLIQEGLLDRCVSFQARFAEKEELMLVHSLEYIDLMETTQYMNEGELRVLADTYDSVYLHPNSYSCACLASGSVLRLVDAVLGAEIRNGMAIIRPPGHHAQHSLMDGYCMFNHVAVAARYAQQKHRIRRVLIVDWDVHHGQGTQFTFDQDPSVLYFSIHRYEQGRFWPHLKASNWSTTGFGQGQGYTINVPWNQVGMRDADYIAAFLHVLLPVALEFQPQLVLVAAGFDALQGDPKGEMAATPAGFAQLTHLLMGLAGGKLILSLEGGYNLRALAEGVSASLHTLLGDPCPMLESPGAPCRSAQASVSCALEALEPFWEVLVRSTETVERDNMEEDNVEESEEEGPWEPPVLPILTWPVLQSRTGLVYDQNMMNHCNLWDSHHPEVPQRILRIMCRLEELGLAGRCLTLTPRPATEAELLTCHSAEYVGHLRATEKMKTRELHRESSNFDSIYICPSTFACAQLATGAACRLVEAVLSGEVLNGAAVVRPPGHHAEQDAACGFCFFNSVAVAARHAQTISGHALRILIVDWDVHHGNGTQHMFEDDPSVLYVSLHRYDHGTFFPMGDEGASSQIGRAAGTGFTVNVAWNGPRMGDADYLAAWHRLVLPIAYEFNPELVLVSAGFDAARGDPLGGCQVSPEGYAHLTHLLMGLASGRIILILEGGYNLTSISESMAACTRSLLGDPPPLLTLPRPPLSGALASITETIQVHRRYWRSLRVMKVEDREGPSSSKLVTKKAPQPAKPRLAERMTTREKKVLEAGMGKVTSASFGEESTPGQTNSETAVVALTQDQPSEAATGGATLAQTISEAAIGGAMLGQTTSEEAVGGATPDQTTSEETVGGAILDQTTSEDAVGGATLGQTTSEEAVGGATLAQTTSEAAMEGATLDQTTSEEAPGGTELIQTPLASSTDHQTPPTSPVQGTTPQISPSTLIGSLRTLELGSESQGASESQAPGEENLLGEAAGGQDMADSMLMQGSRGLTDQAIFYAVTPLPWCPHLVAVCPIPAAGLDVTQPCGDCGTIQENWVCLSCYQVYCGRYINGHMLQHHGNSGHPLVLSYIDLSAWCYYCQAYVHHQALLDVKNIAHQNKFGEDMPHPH
# test.description: HDAC6 enzyme activity inhibition (HDAC Fluorimetric Drug Discovery Kit)
# Format: biochemical
# condition.context: human recombinant HDAC6; IC50 calculated with GraphPad Prism
Response body: numeric value in nM, unit text excluded.

For record "Fc1cc(-c2nnc(C(F)F)o2)ccc1Cn1cc(-c2cccc(C(F)F)c2)nn1" the listed IC50 is 47.2

For record "CCC(=O)N1CCN(c2cccc(-c3cn(Cc4ccc(-c5nnc(C(F)F)o5)cc4F)nn3)c2)CC1" the listed IC50 is 48.1

For record "CCCN1CCN(c2cccc(-c3cn(Cc4ccc(-c5nnc(C(F)F)o5)cc4)nn3)c2)CC1" the listed IC50 is 54.8

For record "FC(F)c1nnc(-c2ccc(Cn3cc(-c4ccc(Cl)nc4)nn3)nc2)o1" the listed IC50 is 50.6

For record "CC(C)N1CCN(C(=O)c2cccc(-c3cn(Cc4ccc(-c5nnc(C(F)F)o5)cn4)nn3)c2)CC1" the listed IC50 is 17.4

For record "O=C(CO)N1CCC(c2cn(Cc3ccc(-c4nnc(C(F)F)o4)cn3)nn2)CC1" the listed IC50 is 300

For record "FC(F)c1nnc(-c2ccc(Cn3cc(-c4cncc(Br)c4)nn3)nc2)o1" the listed IC50 is 22.2

For record "CC(=O)Nc1cccc(-c2cn(Cc3ccc(-c4nnc(C(F)F)o4)cc3F)nn2)c1" the listed IC50 is 29.2

For record CC(C)(C)OC(=O)N1CCCC(c2cn(Cc3ccc(-c4nnc(C(F)F)o4)cn3)nn2)C1 (stereo not shown) the listed IC50 is 129

For record "CC(C)(C)C(=O)Nc1cccc(-c2cn(Cc3ccc(-c4nnc(C(F)F)o4)cn3)nn2)c1" the listed IC50 is 11.2

For record "FC(F)c1nnc(-c2ccc(Cn3cc(-c4ccc5c(CN6CCOCC6)c[nH]c5c4)nn3)nc2)o1" the listed IC50 is 6.7

For record "O=C(c1cccc(-c2cn(Cc3ccc(-c4nnc(C(F)F)o4)cn3)nn2)c1)N1CCCC1" the listed IC50 is 30.2

For record "CC(C)(F)CN1CCC(c2cn(Cc3ccc(-c4nnc(C(F)F)o4)cn3)nn2)CC1" the listed IC50 is 293

For record "FC(F)c1nnc(-c2ccc(Cn3cc(-c4cccc5cc[nH]c45)nn3)nc2)o1" the listed IC50 is 144

For record "FC(F)c1nnc(-c2ccc(Cn3cc(-c4cccc(NC5CCOCC5)c4)nn3)cc2)o1" the listed IC50 is 60.2

For record "Fc1cc(-c2nnc(C(F)F)o2)ccc1Cn1cc(-c2ccc(CN3CC(F)C3)cc2)nn1" the listed IC50 is 21.9
